Each recorded value in this set is attributed to patent US9878985B2.

# key: entry, value: LogP
assay: Log P by HPLC on reversed phase columns (EEC directive 79/831 Annex V.A8); format: physicochemical; conditions: Table 2 (amines III-a); method [a]: LC-UV, acidic range, 0.1% formic acid in water and acetonitrile

INSERT INTO assay_data (molecule, recorded_metric, result) VALUES
  ('Nc1cccc2c1CC2c1ccccc1 (stereo not shown)', 'LogP', '2.20^[a]'),
  ('CC1Cc2c(N)cccc21 (stereo not shown)', 'LogP', '0.87^[a]'),
  ('CCC1(CC)Cc2c(N)cccc21', 'LogP', '2.32^[a]');

Below: the item to evaluate.
In: What value of measured LogP is listed for CC(C)C1Cc2c(N)cccc21 (stereo not shown) ?
Out: 1.90^[a]
